Values were extracted from paper PMC5513091.

# experimental_target: panel of 60 brain ion channels, transporters, and receptors
# experiment_description: Lead Profile Screen
# condition_details: all targets of the panel
outcome_measure: EC50

smiles_data: Cc1ccc(N(/N=C/c2cccc(OC(F)(F)F)c2)C(=O)C(F)(F)F)c(C)c1
experimental_target: panel of 60 brain ion channels, transporters, and receptors
outcome_measure: EC50
result: > 10 µM

====

# experimental_target: CYP 1A2 (Homo sapiens, UniProt P05177)
# Sequence (P05177 whole entry): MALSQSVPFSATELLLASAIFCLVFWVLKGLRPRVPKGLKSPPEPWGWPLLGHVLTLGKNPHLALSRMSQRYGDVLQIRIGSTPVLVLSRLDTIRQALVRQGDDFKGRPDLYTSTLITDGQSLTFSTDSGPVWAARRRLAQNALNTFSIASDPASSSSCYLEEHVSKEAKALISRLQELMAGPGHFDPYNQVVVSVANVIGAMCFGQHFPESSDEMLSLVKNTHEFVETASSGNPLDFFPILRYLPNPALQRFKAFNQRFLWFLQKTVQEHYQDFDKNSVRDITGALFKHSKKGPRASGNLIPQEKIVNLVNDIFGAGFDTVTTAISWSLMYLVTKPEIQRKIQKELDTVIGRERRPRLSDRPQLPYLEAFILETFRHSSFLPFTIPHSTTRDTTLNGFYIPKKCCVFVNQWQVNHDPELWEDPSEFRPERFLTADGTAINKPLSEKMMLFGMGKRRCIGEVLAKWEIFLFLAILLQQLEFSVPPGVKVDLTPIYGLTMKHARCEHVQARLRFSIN
# experiment_description: CYP inhibition
# Type: in vitro ADME
outcome_measure: EC50 at 10 µM

smiles_data: Cc1ccc(N(/N=C/c2cccc(OC(F)(F)F)c2)C(=O)C(F)(F)F)c(C)c1
outcome_measure: EC50 at 10 µM
result: > 10 µM

====

# experiment_description: Micronucleus assay

compound: Cc1ccc(N(/N=C/c2cccc(OC(F)(F)F)c2)C(=O)C(F)(F)F)c(C)c1 [CAD-31]
EC50 at 10 µM: > 10 µM

====

# experimental_target: protein kinases
# experiment_description: Protein Kinase Screen
# condition_details: all kinases
outcome_measure: EC50

compound: Cc1ccc(N(/N=C/c2cccc(OC(F)(F)F)c2)C(=O)C(F)(F)F)c(C)c1 [CAD-31]
result: > 10 µM

====

# Tested on: HT22
# experiment_description: In vitro ischemia
# Assay type: cell-based
# condition_details: Mus musculus, HT-22, read-out: Half-maximal effective concentration, In vitro ischemia
pEC50: −log10 of the molar value.

compound: Cc1ccc(N(/N=C/c2cccc(OC(F)(F)F)c2)C(=O)C(F)(F)F)c(C)c1
pEC50: 7.33
//
compound: COc1cccc(/C=N/N(C(=O)C(F)(F)F)c2ccc(C)cc2C)c1 [J147, reference compound]
pEC50: 7.85

====

# experiment_description: Pharmacokinetics in rats
# Format: in vivo, Sprague-Dawley rats
# condition_details: Sprague-Dawley, rat, in vivo, 20 mg/kg
# Description: Sprague-Dawley rats had free access to food and water. CAD-31 was given by gavage to rats at 20 mg/kg in corn oil and intravenously in 15% HS 15/PBS. Whole-blood samples were collected from the jugular vein at every time point and brain collected after 20-ml saline perfusion. […] Blood was collected by heart puncture, and the brain concentration was determined as with rats.

molecule: Cc1ccc(N(/N=C/c2cccc(OC(F)(F)F)c2)C(=O)C(F)(F)F)c(C)c1 [CAD-31]
half-life / h: 4.3

====

# experiment_description: Ames test
outcome_measure: EC50 at 10 µM

smiles_data: Cc1ccc(N(/N=C/c2cccc(OC(F)(F)F)c2)C(=O)C(F)(F)F)c(C)c1
outcome_measure: EC50 at 10 µM
result: > 10 µM

====

# experimental_target: hERG (Homo sapiens, UniProt Q12809)
# Sequence (Q12809 whole entry): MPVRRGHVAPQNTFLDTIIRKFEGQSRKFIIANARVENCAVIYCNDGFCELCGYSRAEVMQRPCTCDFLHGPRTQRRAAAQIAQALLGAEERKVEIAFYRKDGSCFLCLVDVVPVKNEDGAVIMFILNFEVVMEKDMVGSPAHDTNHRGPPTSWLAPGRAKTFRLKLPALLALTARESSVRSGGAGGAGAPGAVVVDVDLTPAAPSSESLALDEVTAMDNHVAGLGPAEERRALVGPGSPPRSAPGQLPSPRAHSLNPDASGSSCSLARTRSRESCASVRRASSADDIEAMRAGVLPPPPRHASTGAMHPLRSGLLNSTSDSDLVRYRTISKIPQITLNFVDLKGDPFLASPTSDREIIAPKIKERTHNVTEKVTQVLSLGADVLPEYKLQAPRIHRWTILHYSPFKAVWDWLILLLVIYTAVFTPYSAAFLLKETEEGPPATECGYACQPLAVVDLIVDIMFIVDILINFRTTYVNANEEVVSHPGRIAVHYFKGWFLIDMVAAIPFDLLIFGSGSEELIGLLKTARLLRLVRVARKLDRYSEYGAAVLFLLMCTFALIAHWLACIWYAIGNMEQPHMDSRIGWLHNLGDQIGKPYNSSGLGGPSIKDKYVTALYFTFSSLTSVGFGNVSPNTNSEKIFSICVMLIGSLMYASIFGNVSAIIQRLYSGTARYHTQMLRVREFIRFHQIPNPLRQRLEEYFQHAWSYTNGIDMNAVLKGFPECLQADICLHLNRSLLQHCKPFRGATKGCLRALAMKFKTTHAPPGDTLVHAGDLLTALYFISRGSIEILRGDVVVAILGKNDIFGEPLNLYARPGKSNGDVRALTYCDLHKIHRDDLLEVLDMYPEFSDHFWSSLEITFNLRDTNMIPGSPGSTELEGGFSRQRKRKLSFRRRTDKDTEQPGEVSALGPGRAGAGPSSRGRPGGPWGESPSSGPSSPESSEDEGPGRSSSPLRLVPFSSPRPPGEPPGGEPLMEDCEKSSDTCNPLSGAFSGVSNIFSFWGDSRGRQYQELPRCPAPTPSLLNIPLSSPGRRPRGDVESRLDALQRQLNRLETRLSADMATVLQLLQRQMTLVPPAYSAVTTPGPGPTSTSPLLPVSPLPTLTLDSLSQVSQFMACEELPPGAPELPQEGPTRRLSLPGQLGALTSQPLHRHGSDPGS
# experiment_description: hERG assay
# condition_details: human

smiles_data: Cc1ccc(N(/N=C/c2cccc(OC(F)(F)F)c2)C(=O)C(F)(F)F)c(C)c1
experimental_target: hERG (Homo sapiens, UniProt Q12809)
EC50 at 10 µM: > 10 µM
